test system: UACC-257 melanoma; experiment: NCI tumour cell line growth inhibition, 48 h
EXPERIMENTAL READOUT: GI50

MOLECULE	GI50
Nc1nc(N)c2nc3c(nc2n1)CCCCCCCCCC3	2.4 µM
CN1CCN(c2nc(-c3csc(-c4cccs4)n3)cc3ccccc23)CC1	1.87 µM
CCCCOC1OC(COC(=O)C(C)C)C(OC(=O)C(C)C)C(O)C1OC1OC(C)C(OC(=O)CCC)C(OC(=O)C(C)C)C1O (stereo not given)	18.5 µM
O=C1/C(=C/c2ccc(O)cc2)COc2ccc(O)c(O)c21	4.5 µM
CC([O-])=C1C(=O)c2ccccc2C1=O.CC([O-])=C1C(=O)c2ccccc2C1=O.CC[O-].CC[O-].[Ti+4]	> 100 µM

stdin: GI50 lookup needed for "CCSC[C@@H]1C[C@](O)(c2ccc(F)cc2)[C@@H](c2ccc(F)cc2)O1" , thanks.
stdout: 16.1 µM

stdin: GI50 lookup needed for "Cc1nc2ccccc2nc1N=Nc1ccccc1" , thanks.
stdout: 25.2 µM

stdin: GI50 lookup needed for "COc1ccc(-c2c3c(nc4n[nH]c(-c5ccc(Cl)cc5)c24)-c2ccccc2C(=O)C3=O)cc1" , thanks.
stdout: 1.57 µM

stdin: GI50 lookup needed for "NC1(Cc2ccc(Cl)cc2)CCN(c2ncnc3[nH]ccc23)CC1" , thanks.
stdout: 13.1 µM

stdin: GI50 lookup needed for "CC(=O)/C=C/c1ccc(OCc2ccc(Cl)cc2)cc1" , thanks.
stdout: 274 µM

###

tested on: MDA-MB-231 breast; experiment: NCI tumour cell line growth inhibition, 48 h
EXPERIMENTAL READOUT: TGI (µM)
Response body: numeric value in µM, unit text excluded.

Worked examples follow.
COMPOUND	TGI / µM
CC1(C)Cc2c(Br)c(Br)c(Br)c(OCC(O)CN3CCN(c4ccccn4)CC3)c2O1 (stereo not given)	28.2
CN(CCNC(=O)c1c[nH]c2c1Cc1ccccc1-2)CCNC(=O)c1c[nH]c2c1Cc1ccccc1-2	80.6

// moving on: another record for TGI
stdin: TGI lookup needed for "Cc1cc2nc3c(C#N)c4c(c(-c5ccc(Cl)cc5)n3c2cc1C)CCC4" , thanks.
stdout: 49.1

###

tested on: OVCAR-8 ovarian; assay: NCI tumour cell line growth inhibition, 48 h
EXPERIMENTAL READOUT: GI50

COc1ccc(CCN2CCC(CN(C)Cc3cnn(-c4ccccc4)c3)CC2)cc1 16.5 µM
Cc1nc2cc(Nc3nc(Nc4ccc(F)cc4)nc(N4CCOCC4)n3)ccc2n1Cc1ccccc1 4.34 µM

// moving on: another record for GI50
stdin: Value wanted: GI50 (OVCAR-8 ovarian) of entry "COCCOCCOCc1n(Cc2ccc3ccccc3n2)c2ccccc2[n+]1Cc1ccc2ccccc2n1"
stdout: 1.27 µM

###

tested on: OVCAR-8 ovarian; assay: NCI tumour cell line growth inhibition, 48 h; in the data active = GI50 below about 0.43 µM; inactive = the rest
Please reply with one of these outcomes: active, inactive

Example results:
MOLECULE	QUALITATIVE LABEL
CN(C)c1ccc(/C=N/S(=O)(=O)c2ccc(-n3c(-c4ccccc4)nc4c(Br)cc(Br)cc4c3=O)cc2)cc1	inactive
COc1ccc(-c2csc(NC(=O)CN3CCN(c4cc5c(cc4F)c(=O)c(C(=O)O)cn5C4CC4)CC3)n2)cc1	inactive
COc1cc(C)c2sc3ccccc3c(=O)c2c1NCCN(C)C	inactive
O=C1/C(=C/c2ccc(O)cc2)COc2ccc(O)c(O)c21	inactive
Cc1ccc(-n2nnnc2-c2cnc(N3CCOCC3)nc2-c2cccc(C(F)(F)F)c2)cc1	inactive

stdin: Which result was noted for this molecule in the test: Cc1cc(O)c(C2=NN(c3ccc(S(N)(=O)=O)cc3)C(/C=C/c3ccccc3)C2)cc1Cl (stereo not given)
stdout: inactive

stdin: Which result was noted for this molecule in the test: "Cc1nc2ccccc2nc1N=Nc1ccccc1"
stdout: inactive

stdin: Which result was noted for this molecule in the test: "NC(=O)c1sc(-n2cnc3cc(C(F)(F)F)ccc32)cc1OCc1ccccc1Br"
stdout: inactive

stdin: Which result was noted for this molecule in the test: "Cc1[nH]c2cc(F)ccc2c1-c1nc2c3cccnc3c3ncccc3c2[nH]1"
stdout: active

stdin: Which result was noted for this molecule in the test: "Nc1nc(N)c2nc3c(nc2n1)CCCCCCCCCC3"
stdout: inactive

###

tested on: SF-268 CNS; assay: NCI tumour cell line growth inhibition, 48 h; in the data active = GI50 below about 0.43 µM; inactive = the rest
Please reply with one of these outcomes: active, inactive

Example results:
COMPOUND	QUALITATIVE LABEL
Cc1[nH]c2cc(F)ccc2c1-c1nc2c3cccnc3c3ncccc3c2[nH]1	active
Nc1nc(N)c2nc3c(nc2n1)CCCCCCCCCC3	inactive
O=Cc1ccc(-c2ccc(-c3nc4ccccc4s3)cc2)s1	inactive
CC(=O)O[C@H]1CC[C@@]2(C)C(=C/C(=N/OCCN3CCCC3)[C@H]3[C@@H]4CC[C@H](OC(C)=O)[C@@]4(C)CC[C@@H]32)C1	inactive

stdin: Which result was noted for this compound in the test: "CN1CCN(c2nc(-c3csc(-c4cccs4)n3)cc3ccccc23)CC1"
stdout: inactive

stdin: Which result was noted for this compound in the test: "CC(C)(C)OC(=O)NCc1cccc(N=C=S)c1"
stdout: inactive

stdin: Which result was noted for this compound in the test: CCCCOC1OC(COC(=O)C(C)C)C(OC(=O)C(C)C)C(O)C1OC1OC(C)C(OC(=O)CCC)C(OC(=O)C(C)C)C1O (stereo not given)
stdout: inactive

stdin: Which result was noted for this compound in the test: "COCCOCCOCc1n(Cc2ccc3ccccc3n2)c2ccccc2[n+]1Cc1ccc2ccccc2n1"
stdout: inactive

stdin: Which result was noted for this compound in the test: "O=C1CC/C(=C/COc2cc(=O)oc3ccccc23)O1"
stdout: inactive

stdin: Which result was noted for this compound in the test: "O=C1/C(=C/c2ccc(O)cc2)COc2ccc(O)c(O)c21"
stdout: inactive

stdin: Which result was noted for this compound in the test: "CC([O-])=C1C(=O)c2ccccc2C1=O.CC([O-])=C1C(=O)c2ccccc2C1=O.CC[O-].CC[O-].[Ti+4]"
stdout: inactive

stdin: Which result was noted for this compound in the test: NC(CSSCC(N)C(=O)O)C(=O)O (stereo not given)
stdout: inactive

stdin: Which result was noted for this compound in the test: "CN(CCC(=O)/C(=C\c1ccccc1)c1ccc(Cl)cc1)Cc1ccccc1"
stdout: inactive

stdin: Which result was noted for this compound in the test: "COC(=O)[C@H](Cc1cn(C)cn1)NC(=O)[C@H](C)NC(=O)Nc1cc(C(F)(F)F)cc(C(F)(F)F)c1"
stdout: inactive

stdin: Which result was noted for this compound in the test: "CC(=O)/C=C/c1ccc(OCc2ccc(Cl)cc2)cc1"
stdout: inactive

###

tested on: HOP-92 NSCLC; test: NCI tumour cell line growth inhibition, 48 h
Listed below: TGI values for each entry.
Response body: numeric value in µM, unit text excluded.

Worked examples follow.
COMPOUND	UNIT OF MEASUREMENT	TGI
O=C1/C(=C/c2ccc(O)cc2)COc2ccc(O)c(O)c21	µM	7.25
CC(C)c1ccccc1SCc1cc(=O)cc(CSc2ccccc2C(C)C)o1	µM	36.7
Cc1cc2nc3c(C#N)c4c(c(-c5ccc(Cl)cc5)n3c2cc1C)CCC4	µM	50.7
S=c1sc2c(Cl)nc(-c3cccnc3)nc2n1-c1ccccc1	µM	30.5
O=C1CSC(c2ccc(Cl)cc2Cl)N1c1ccc(Oc2ccc(Cl)cc2)c(Cl)c1 (stereo unspecified)	µM	49.4

stdin: Value wanted: TGI (HOP-92 NSCLC) of entry "COc1ccc(-c2c3c(nc4n[nH]c(-c5ccc(Cl)cc5)c24)-c2ccccc2C(=O)C3=O)cc1"
stdout: 3.17

stdin: Value wanted: TGI (HOP-92 NSCLC) of entry "CN1CCN(c2nc(-c3csc(-c4cccs4)n3)cc3ccccc23)CC1"
stdout: 3.75

###

system: LOX IMVI melanoma; assay: NCI tumour cell line growth inhibition, 48 h; in the data active means GI50 below about 0.43 µM; inactive means the rest
Please reply with one of these outcomes: active, inactive

Example results:
COMPOUND	QUALITATIVE LABEL
COCCOCCOCc1n(Cc2ccc3ccccc3n2)c2ccccc2[n+]1Cc1ccc2ccccc2n1	inactive
COC(=O)[C@H](Cc1cn(C)cn1)NC(=O)[C@H](C)NC(=O)Nc1cc(C(F)(F)F)cc(C(F)(F)F)c1	inactive

stdin: Which result was noted for this compound in the test: "COc1ccc(C(=O)c2sc3nc(-c4cccs4)ccc3c2N)cc1OC"
stdout: inactive

stdin: Which result was noted for this compound in the test: "CC(C)(C)OC(=O)NCc1cccc(N=C=S)c1"
stdout: inactive

stdin: Which result was noted for this compound in the test: "O=[N+]([O-])c1cc([N+](=O)[O-])c(Cl)cc1Cl"
stdout: active

stdin: Which result was noted for this compound in the test: "COc1ccc(CCN2CCC(CN(C)Cc3cnn(-c4ccccc4)c3)CC2)cc1"
stdout: inactive

stdin: Which result was noted for this compound in the test: "O=C1c2cccnc2C(=O)c2c1c(C(=O)OCCCN1CCCCC1)c1ccccn21"
stdout: active
